Reference for the values: patent US20230212549A1

Recorded IC50 by entry
# system.tested: Human recombinant FAP (Homo sapiens, UniProt Q12884)
# assay.notes: FRET-based FAP protease activity assay
# Assay type: biochemical
# Design: purchased R&D systems 3715-SE
# test.conditions: pIC50 Category (Activity), FRET-peptide substrate, 37° C.

[
  {
    "compound": "CCCCCC(=O)N[C@H]1CSCc2cc(CSCCNC(=O)CCC(=O)NCCCOCCOCCOCCCNC(=O)CCCCC3(N(C)CC(=O)O)CN(CC(=O)O)CCN(CC(=O)O)C3)cc(c2)CSC[C@@H](C(=O)O)NC(=O)[C@H](Cc2ccccc2)NC(=O)[C@H](CCC(N)=O)NC(=O)[C@H]([C@@H](C)O)NC(=O)[C@@H]2CCCN2C(=O)[C@@H]2CCCN2C1=O",
    "result.value": "10 to 79.4 nM"
  }
]

Data request: Would you mind telling me what IC50 value was observed for "CCCCC(=O)N[C@H]1CSCc2cc(CSCCNC(=O)CN3CCN(CC(=O)O)CCN(CC(=O)O)CCN(CC(=O)O)CC3)cc(c2)CSC[C@@H](C(=O)O)NC(=O)[C@H](Cc2ccccc2)NC(=O)[C@H](CCC(N)=O)NC(=O)[C@H]([C@@H](C)O)NC(=O)[C@@H]2CCCN2C(=O)[C@@H]2CCCN2C1=O" ?
Data returned: < 10 nM

Data request: Would you mind telling me what IC50 value was observed for "CCCC[C@H](NC(=O)CCC(=O)NCCCOCCOCCOCCCNC(=O)[C@H](CCC(=O)NC[C@H](O)[C@@H](O)[C@H](O)[C@H](O)CO)NC(=O)C(CNCCN)CNCCN)C(=O)N[C@H]1CSCc2cccc(c2)CSC[C@@H](C(=O)O)NC(=O)[C@H](Cc2ccccc2)NC(=O)[C@H](CCC(N)=O)NC(=O)[C@H]([C@@H](C)O)NC(=O)[C@@H]2CCCN2C(=O)[C@@H]2CCCN2C1=O" ?
Data returned: 10 to 79.4 nM

Data request: Given the entry C[C@@H](O)[C@@H]1NC(=O)[C@@H]2CCCN2C(=O)[C@@H]2CCCN2C(=O)[C@@H](NC(=O)C2CCOC2)CSCc2cc(CSCCNC(=O)CN3CCN(CC(=O)O)CCN(CC(=O)O)CCN(CC(=O)O)CC3)cc(c2)CSC[C@@H](C(=O)O)NC(=O)[C@H](Cc2ccccc2)NC(=O)[C@H](CCC(N)=O)NC1=O (stereo partly drawn) , report its measured IC50.
Data returned: 100 to 794 nM

Data request: Report IC50 for "CCCC[C@H](NC(=O)CCC(=O)NCCCOCCOCCOCCCNC(=O)CN1CCN(CC(=O)O)CCN(CC(=O)O)CCN(CC(=O)O)CC1)C(=O)N[C@H]1CSCc2cccc(c2)CSC[C@@H](C(=O)N[C@@H](CC(=O)O)C(=O)NCCCOCCOCCOCCCNC(=O)CCC(=O)N[C@@H](CCCCNC(=O)CN2CCN(CC(=O)O)CCN(CC(=O)O)CCN(CC(=O)O)CC2)C(N)=O)NC(=O)[C@H](Cc2ccccc2)NC(=O)[C@H](CCC(N)=O)NC(=O)[C@H]([C@@H](C)O)NC(=O)[C@@H]2CCCN2C(=O)[C@@H]2CCCN2C1=O" please.
Data returned: < 10 nM

Data request: Bench note: what IC50 did "CCCCCC(=O)N[C@H]1CSCc2cc(CSCCNC(=O)CCC(=O)NCCCOCCOCCOCCCNC(=O)[C@H](CO)NC(=O)[C@H](CO)NC(=O)[C@H](CO)NC(=O)CS)cc(c2)CSC[C@@H](C(=O)O)NC(=O)[C@H](Cc2ccccc2)NC(=O)[C@H](CCC(N)=O)NC(=O)[C@H]([C@@H](C)O)NC(=O)[C@@H]2CCCN2C(=O)[C@@H]2CCCN2C1=O" show?
Data returned: 10 to 79.4 nM

----------
pIC50: −log10 of the molar value. Numbered stars: 1 amine (or outer) side, 2 acyl side, 3 side chain; on linkers, the order of the positions; unused ones are H or OH. Bridge positions count the residues as written; N and C are the ends. Square brackets hold non-standard residues; d marks the D form. Peptide text beside a SMILES is read from it. * marks the point of attachment. ξ: configuration not given here. X12 = O=C(O)CN1CCN(CC(=O)O)CCN(CC(=O)NCCCOCCOCCOCCCN*)CCN(CC(=O)O)CC1; DOTA = O=C(O)CN1CCN(CC(=O)O)CCN(CC(=O)*)CCN(CC(=O)O)CC1; X1 = NCCNCC(CNCCN)C(=O)N1CCN(CC(=O)NCCCOCCOCCOCCCN*)CC1; Pro(trans-4-Ph) = O=C(O)[C@@H]1C[C@@H](c2ccccc2)CN1; Pyridine(3,5-bisCH2) = c1ncc(C[*:2])cc1C[*:1]; Pro(4,4-F2) = O=C(O)[C@@H]1CC(F)(F)CN1; mXylylene = c1cc(C[*:1])cc(C[*:2])c1; NMeF = CN[C@@H](Cc1ccccc1)C(=O)O; X29 = O=C(CN1CCN([*:1])CC1)[*:2]; Suc = O=C(CCC(=O)[*:2])[*:1]; Nle = CCCC[C@H](N)C(=O)O; Orn = NCCC[C@H](N)C(=O)O; X2 = NCCNCC(CNCCN)C(=O)*; Hexanoyl = CCCCCC(=O)*; Inp = O=C(O)C1CCNCC1; ξC = NC(CS)C(=O)O; βAla = NCCC(=O)O
Reported pIC50 values, FAP-expressing human WI-38 fibroblasts (Homo sapiens, UniProt Q12884).

Would you please look over these solved cases?
[
  {
    "molecule": "CCCCCC(=O)N[C@H]1CSCc2cc(CSCCNC(=O)CCOCCOCCOCCOCCOCCOCCNC(=O)CCc3ccc(O)c(CN(CCN(CC(=O)O)Cc4cc(CCC(=O)O)ccc4O)CC(=O)O)c3)cc(c2)CSC[C@@H](C(=O)O)NC(=O)[C@H](Cc2ccccc2)NC(=O)[C@H](CCC(N)=O)NC(=O)[C@H]([C@@H](C)O)NC(=O)[C@@H]2CCCN2C(=O)[C@@H]2CCCN2C1=O",
    "pIC50": "7.10 to 8.00"
  },
  {
    "molecule": "CCCCCC(=O)N[C@H]1CSCc2cccc(c2)CSC[C@@H](C(N)=O)NC(=O)[C@H](Cc2ccccc2)NC(=O)[C@H](CCC(=O)O)NC(=O)[C@H](CCCNC(C)=O)NC(=O)[C@@H]2CCCN2C(=O)[C@@H]2CCCN2C1=O [3BP-3372] (Hexanoyl-CPP[Orn](Ac)EFC-NH2; linker 1-7 via mXylylene)",
    "pIC50": "< 6.00"
  },
  {
    "molecule": "CCCCCC(=O)N[C@H]1CSCc2cccc(c2)CSC[C@@H](C(N)=O)NC(=O)[C@H](Cc2ccccc2)NC(=O)[C@H](CCC(=O)O)NC(=O)[C@H]([C@@H](C)O)NC(=O)[C@@H]2C[C@@H](c3ccccc3)CN2C(=O)[C@@H]2CCCN2C1=O [3BP-3353] (Hexanoyl-CP[Pro(trans-4-Ph)]TEFC-NH2; linker 1-7 via mXylylene)",
    "pIC50": "< 6.00"
  },
  {
    "molecule": "CCCCC(=O)N[C@H]1CSCc2cc(CSCCNC(=O)CN3CCN(CC(=O)O)CCN(CC(=O)O)CCN(CC(=O)O)CC3)cc(c2)CSC[C@@H](C(=O)O)NC(=O)[C@H](Cc2ccccc2)NC(=O)[C@H](CCC(N)=O)NC(=O)[C@H]([C@@H](C)O)NC(=O)[C@@H]2CCCN2C(=O)[C@@H]2CCCN2C1=O",
    "pIC50": "> 8.00"
  },
  {
    "molecule": "C[C@@H](O)[C@@H]1NC(=O)[C@@H]2CCCN2C(=O)[C@@H]2CCCN2C(=O)[C@@H](NC(=O)C2CCN(C(=O)CN3CCN(CC(=O)O)CCN(CC(=O)O)CCN(CC(=O)O)CC3)CC2)CSCc2cccc(c2)CSC[C@@H](C(=O)N[C@@H](CC(=O)O)C(=O)N[C@@H](Cc2c[nH]cn2)C(=O)N(C)[C@@H](Cc2ccccc2)C(=O)N[C@@H](CCCNC(=N)N)C(=O)N[C@@H](CC(=O)O)C(N)=O)NC(=O)[C@H](Cc2ccccc2)NC(=O)[C@H](CCC(=O)O)NC1=O [3BP-3265] ({DOTA-Inp}-CPPTEFCDH[NMeF]RD-NH2; linker 1-7 via mXylylene)",
    "pIC50": "6.10 to 7.00"
  }
]

Data request: // map "CCCCCC(=O)N[C@H]1CSCc2cc(CSCCNC(=O)CCCC(=O)Nc3ccc(C[C@@H](CN(CCN(CC(=O)O)CC(=O)O)CC(=O)O)N(CC(=O)O)CC(=O)O)cc3)cc(c2)CSC[C@@H](C(=O)O)NC(=O)[C@H](Cc2ccccc2)NC(=O)[C@H](CCC(N)=O)NC(=O)[C@H]([C@@H](C)O)NC(=O)[C@@H]2CCCN2C(=O)[C@@H]2CCCN2C1=O" to recorded pIC50 (system: FAP-expressing human WI-38 fibroblasts (Homo sapiens, UniProt Q12884))
Sequence (Q12884 whole entry): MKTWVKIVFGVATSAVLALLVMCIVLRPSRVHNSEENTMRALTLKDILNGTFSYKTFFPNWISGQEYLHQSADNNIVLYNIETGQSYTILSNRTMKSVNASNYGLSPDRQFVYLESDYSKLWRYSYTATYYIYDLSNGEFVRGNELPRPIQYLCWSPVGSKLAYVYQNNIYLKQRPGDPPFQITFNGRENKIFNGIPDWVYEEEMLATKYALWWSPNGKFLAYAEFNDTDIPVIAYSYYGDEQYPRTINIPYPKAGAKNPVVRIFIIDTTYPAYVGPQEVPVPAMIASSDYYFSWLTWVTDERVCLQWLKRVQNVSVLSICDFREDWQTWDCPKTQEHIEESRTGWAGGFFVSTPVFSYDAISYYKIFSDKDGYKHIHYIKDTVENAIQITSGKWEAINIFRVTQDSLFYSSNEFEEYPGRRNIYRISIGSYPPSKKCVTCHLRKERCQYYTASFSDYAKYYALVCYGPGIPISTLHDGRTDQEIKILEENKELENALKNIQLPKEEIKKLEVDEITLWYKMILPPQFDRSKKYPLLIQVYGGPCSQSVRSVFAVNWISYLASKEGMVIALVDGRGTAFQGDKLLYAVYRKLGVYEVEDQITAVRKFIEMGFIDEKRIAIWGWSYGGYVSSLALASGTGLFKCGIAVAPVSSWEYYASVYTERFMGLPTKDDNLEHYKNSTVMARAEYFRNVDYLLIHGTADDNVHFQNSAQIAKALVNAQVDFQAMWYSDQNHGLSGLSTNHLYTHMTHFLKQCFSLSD
Data returned: 6.10 to 7.00

Data request: Which pIC50 is reported with FAP-expressing human WI-38 fibroblasts (Homo sapiens, UniProt Q12884) for this entry: "C[C@@H](O)[C@@H]1NC(=O)[C@@H]2CCCN2C(=O)[C@@H]2CCCN2C(=O)[C@@H](NC(=O)C2CCCC2)CSCc2cc(CSCCNC(=O)CN3CCN(CC(=O)O)CCN(CC(=O)O)CCN(CC(=O)O)CC3)cc(c2)CSC[C@@H](C(=O)O)NC(=O)[C@H](Cc2ccccc2)NC(=O)[C@H](CCC(N)=O)NC1=O" ?
Data returned: 7.10 to 8.00

Data request: Could you share what pIC50 was measured for CCCC[C@H](NC(=O)CCNC(=O)CN1CCN(C(=O)C(CNCCN)CNCCN)CC1)C(=O)N[C@H]1CSCc2cccc(c2)CSC[C@@H](C(=O)O)NC(=O)[C@H](Cc2ccccc2)NC(=O)[C@H](CCC(=O)O)NC(=O)[C@H]([C@@H](C)O)NC(=O)[C@@H]2CCCN2C(=O)[C@@H]2CCCN2C1=O [3BP-4783, N4Ac-PPAc-Bal--Nle-[C(3MeBn)-PPTEFC]-OH] (X2-[X29][βAla][Nle]CPPTEFC-OH; linker 4-10 via mXylylene) , tested on FAP-expressing human WI-38 fibroblasts (Homo sapiens, UniProt Q12884)?
Data returned: < 6.00

Data request: Could you share what pIC50 was measured for CCCC[C@H](NC(=O)CCC(=O)NCCCOCCOCCOCCCNC(=O)CN1CCN(CC(=O)O)CCN(CC(=O)O)CCN(CC(=O)O)CC1)C(=O)N[C@H]1CSCc2cccc(c2)CSC[C@@H](C(=O)N[C@@H](CC(=O)O)C(N)=O)NC(=O)[C@H](Cc2ccccc2)NC(=O)[C@H](CCC(=O)O)NC(=O)[C@H]([C@@H](C)O)NC(=O)[C@@H]2CCCN2C(=O)[C@@H]2CCCN2C1=O [3BP-3320] ({X12-Suc}-[Nle]CPPTEFCD-NH2; linker 2-8 via mXylylene) , tested on FAP-expressing human WI-38 fibroblasts (Homo sapiens, UniProt Q12884)?
Data returned: 7.10 to 8.00

Data request: I'm curious: which pIC50 was measured for CCCCCC(=O)N[C@H]1CSCc2cccc(c2)CSC[C@@H](C(N)=O)NC(=O)[C@H](Cc2ccccc2)NC(=O)[C@H](CCC(=O)O)NC(=O)[C@H]([C@@H](C)O)NC(=O)[C@@H]2CC(F)(F)CN2C(=O)[C@@H]2CCCN2C1=O [3BP-3365] (Hexanoyl-CP[Pro(4,4-F2)]TEFC-NH2; linker 1-7 via mXylylene) tested on FAP-expressing human WI-38 fibroblasts (Homo sapiens, UniProt Q12884)?
Data returned: < 6.00

Data request: Notebook: pull reported pIC50 for FAP-expressing human WI-38 fibroblasts (Homo sapiens, UniProt Q12884), entry CCCC[C@H](NC(=O)CCC(=O)NCCCOCCOCCOCCCNC(=O)CN1CCN(C(=O)C(CNCCN)CNCCN)CC1)C(=O)N[C@H]1CSCc2cncc(c2)CSCC(C(=O)O)NC(=O)[C@H](Cc2ccccc2)NC(=O)[C@H](CCC(=O)O)NC(=O)[C@H]([C@@H](C)O)NC(=O)[C@@H]2CCCN2C(=O)[C@@H]2CCCN2C1=O (some centres unmarked) [3BP-4775] ({X1-Suc}-[Nle]CPPTEF[ξC]-OH; linker 2-8 via Pyridine(3,5-bisCH2))
Data returned: 7.10 to 8.00
